Tested on: L1210 leukemia ip in BDF1 mice, survival T/C
Assay: NCI In Vivo Anticancer Drug Screen. Data for tumor model L1210 Leukemia (intraperitoneal) in B6D2F1 (BDF1) mice
Settings: endpoint: mean survival time; dose: 200.0 mg/kg/injection; schedule: Q04DX002 (ip); vehicle: Klucel (hydroxypropylcellulose) (HPC); higher = longer survival
Inconclusive results and toxic doses are left out.
Entries and their T/C

{"MOLECULE": "CCOC(=O)C1(C(=O)OCC)CCC(C(=O)OCC)(C(=O)OCC)CC1", "T/C": "101 % of control"}
{"MOLECULE": "CCN(CCO)C(=O)C1C(c2ccccc2)C1c1ccccc1 (stereo not drawn)", "T/C": "100 % of control"}
{"MOLECULE": "COc1cc(NC(=O)Nc2cc(Cl)ccc2C)c(OC)cc1Cl", "T/C": "98 % of control"}
{"MOLECULE": "COc1cccc(NC(=S)NC(Cc2ccccc2)c2ccccc2)c1 (stereo not drawn)", "T/C": "101 % of control"}
{"MOLECULE": "Nc1c(Cl)cc(I)cc1C(=O)O", "T/C": "102 % of control"}
{"MOLECULE": "NC(CC1CCCCC1)C(=O)O (stereo not drawn)", "T/C": "88 % of control"}
{"MOLECULE": "O=C(O)C1C2OC(C(Cl)C2Cl)C1C(=O)O (stereo not drawn)", "T/C": "103 % of control"}
{"MOLECULE": "COc1ccc(N=C(CCl)Nc2ccc(OC)cc2)cc1", "T/C": "88 % of control"}
{"MOLECULE": "O=C1C=C(c2ccccc2)C(=O)O1", "T/C": "92 % of control"}
{"MOLECULE": "COc1cccc2cc([N+](=O)[O-])oc12", "T/C": "101 % of control"}
{"MOLECULE": "C/C=C/C=N/n1c(CCC)nc2ccccc2c1=O", "T/C": "104 % of control"}
{"MOLECULE": "N#CCC(=O)Nc1ccccc1", "T/C": "109 % of control"}
{"MOLECULE": "Cc1ccc(NC(=O)c2c(Br)c(Br)c(Br)c(Br)c2C(=O)O)cc1Cl", "T/C": "110 % of control"}

* * *

Test system: L1210 leukemia ip in BDF1 mice, survival T/C
Test: NCI In Vivo Anticancer Drug Screen. Data for tumor model L1210 Leukemia (intraperitoneal) in B6D2F1 (BDF1) mice
Details: endpoint: mean survival time; dose: 100.0 mg/kg/injection; schedule: Q01DX009 (ip); vehicle: Klucel (hydroxypropylcellulose) (HPC); higher = longer survival
Inconclusive results and toxic doses are left out.
REPORTED ENDPOINT: T/C

{"COMPOUND": "O=[N+]([O-])c1cc(Cl)ccc1S(=O)(=O)c1ccccc1", "ENDPOINT VALUE": "99 % of control"}
{"COMPOUND": "CCc1ccc(NC(=O)Nc2ccc(Cl)c(Cl)c2)cc1", "ENDPOINT VALUE": "90 % of control"}
{"COMPOUND": "COC(=O)N/N=C/c1ccccc1Cl", "ENDPOINT VALUE": "108 % of control"}
{"COMPOUND": "CC(C)N(CCC#N)C(=S)Nc1cccc2ccccc12", "ENDPOINT VALUE": "93 % of control"}
{"COMPOUND": "c1ccc(CNC(Cc2ccccc2)c2ccc(OCc3ccccc3)cc2)cc1 (stereo not drawn)", "ENDPOINT VALUE": "93 % of control"}
{"COMPOUND": "CC(C)=NNC(=O)Nc1ccc(C)c(Cl)c1", "ENDPOINT VALUE": "102 % of control"}
{"COMPOUND": "Cc1cnc(N)c([N+](=O)[O-])c1", "ENDPOINT VALUE": "97 % of control"}
{"COMPOUND": "CCOC(=O)CC1(C)NC(C(=O)O)C(C)(C)S1 (stereo not drawn)", "ENDPOINT VALUE": "97 % of control"}
{"COMPOUND": "C/C(=N/NC(N)=O)C1CC2CCC1CC2 (stereo not drawn)", "ENDPOINT VALUE": "93 % of control"}
{"COMPOUND": "CCCCC(CCCC)(C(N)=O)C(=O)OCC", "ENDPOINT VALUE": "105 % of control"}
{"COMPOUND": "COc1ccc(/C=C(\\C(=O)O)c2cccc3ccccc23)cc1", "ENDPOINT VALUE": "91 % of control"}
{"COMPOUND": "CSc1ccc(OC(=O)NC2CCCCC2)cc1", "ENDPOINT VALUE": "98 % of control"}
{"COMPOUND": "Nc1ccc(C(=O)Oc2ccc([N+](=O)[O-])cc2)c(O)c1", "ENDPOINT VALUE": "95 % of control"}
